biological target: 92 kDa gelatinase (MMP-9) (Homo sapiens); assay: MMP-9 enzyme inhibition assay (coumarin-labeled peptide substrate); assay type: biochemical; conditions: @ 5 μM; read-out: percentage inhibition MMP9
Sequence (P14780 107-707 limits assumed): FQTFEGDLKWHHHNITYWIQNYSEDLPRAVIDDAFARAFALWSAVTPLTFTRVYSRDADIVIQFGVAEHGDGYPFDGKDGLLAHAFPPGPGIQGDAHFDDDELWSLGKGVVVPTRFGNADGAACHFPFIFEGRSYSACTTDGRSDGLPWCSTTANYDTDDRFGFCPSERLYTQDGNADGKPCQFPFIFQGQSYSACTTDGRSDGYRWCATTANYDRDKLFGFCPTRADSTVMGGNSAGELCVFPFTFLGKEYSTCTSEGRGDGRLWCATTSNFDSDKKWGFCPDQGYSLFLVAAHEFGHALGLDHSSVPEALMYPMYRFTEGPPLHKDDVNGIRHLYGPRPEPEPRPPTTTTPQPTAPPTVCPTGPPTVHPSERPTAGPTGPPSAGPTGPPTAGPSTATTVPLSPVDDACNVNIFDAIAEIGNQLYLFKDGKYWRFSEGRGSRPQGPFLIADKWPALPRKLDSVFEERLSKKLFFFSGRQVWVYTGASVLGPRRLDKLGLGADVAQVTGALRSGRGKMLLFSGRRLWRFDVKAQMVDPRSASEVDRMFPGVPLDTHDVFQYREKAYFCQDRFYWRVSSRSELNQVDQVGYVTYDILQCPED
readoutType: inhibition at 5 µM (%)

O=CN(O)C(CCC(F)(F)F)CS(=O)(=O)N1CCc2ccc(Cl)cc2C1 (stereo not shown): 14
CC1(C)OC[C@H](C(CS(=O)(=O)N2CCc3ccc(C(F)(F)F)cc3C2)N(O)C=O)O1 (stereo partly shown): 21

1. CC(C)(C)CC(CS(=O)(=O)N1Cc2ccc(F)cc2C1)N(O)C=O (stereo not shown)
2. COc1ccc2c(c1)CN(S(=O)(=O)CC(CCC1CCCO1)N(O)C=O)CC2 (stereo not shown)
### Prompt Task for the reader: decide whether 1 or 2 has the larger inhibition at 5 µM. # answer = label of selected item
### Response 1
